target: Glucose transporter (Leishmania mexicana); test: ST_JUDE_LEISH: Cytotoxicity at 2uM final concentration against transgenic Leishmania Mexicana promastigotes LmGT2 that are glucose transport deficient and complemented with the L. Mexicana glucose transporter 2. Activity is measured by DNA content using SYBR green in vitro; assay type: functional
measure: inhibition (%)
# number only, unit % dropped from output

Answered examples (2):
{"compound": "O=C(/C=C/c1cccc(C(F)(F)F)c1)NCCCCCN1CCC(c2c[nH]c3ccccc23)CC1", "testedOn": "Glucose transporter (Leishmania mexicana)", "inhibition / %": 1.4}
{"compound": "Oc1ccc(CCNc2nc(NCc3ccccc3-c3ccc(C(F)(F)F)cc3)nc(NC3CCNCC3)n2)cc1", "testedOn": "Glucose transporter (Leishmania mexicana)", "inhibition / %": 0.66}

The compound listed as "c1ccc2c(c1)CN(CC1CC1)CC1(CCN(Cc3c[nH]c4cnccc34)CC1)O2" has a reported inhibition of 0.54

Entry "O=C(NC1CCCCC1)N(Cc1ccc(-c2ccc(CNCc3ccc4c(c3)OCO4)cc2)cc1)C1CCN(Cc2ccccc2)CC1" ; inhibition = 1.56

For "CCN(CCCN1CCCCC1)c1cc(C)nc(Nc2cc(Cl)cc(Cl)c2)n1" the compound record lists inhibition as 1.01

Sample "COc1ccc2nccc([C@@H](O)CN3CCC(NCc4ccc5c(c4)OCCO5)CC3)c2c1" ; inhibition observed: 0.41

The reported value for "COC(=O)C1(NC(=O)c2ccc(-n3nc(C)c(-c4ccccc4)c3N)cc2)CCCC1" in terms of inhibition is 2.55

Recorded inhibition (compound "CCC[C@@H]([C@@H](CC(C)C)C(=O)N[C@@H](CCCNc1nccc(C(F)(F)F)n1)C(=O)Nc1nccs1)N(O)C=O" ): 3.22

Measured inhibition, "CCc1c[nH]c2c(N3CCCC3=O)cc(C(=O)N[C@@H](Cc3ccccc3)[C@H](O)CNC(C)(C)CCCC(C)C)cc12" : 8.72

For record O=C(NCc1ccccc1)NC(CCCN1CCC(Oc2cccc(Cl)c2)CC1)c1ccc(Cl)c(Cl)c1 (stereo not drawn) the listed inhibition is -0.18

Entry under test: "CCc1cn(C)c2c(N3CCCC3=O)cc(C(=O)N[C@@H](Cc3ccccc3)[C@H](O)CNC3CCCCC3)cc12" . Its inhibition was 11.5

Kindly note the recorded inhibition for "O=C(NCCN1CCCC1)c1cccc(-c2ccc(-c3nc4ccccc4[nH]3)cc2)c1" , which is 4.26

Value of inhibition reported for the compound "O=C(/C=C/c1ccc([N+](=O)[O-])cc1)N1CCC(NS(=O)(=O)c2cccc(C(F)(F)F)c2)CC1" is 0.97

The measured inhibition associated with "CN(CCNCc1ccc(-c2cccc(-c3nc4ccccc4[nH]3)c2)cc1)S(C)(=O)=O" reads 1.73

###

molecular target: Glucose transporter (Leishmania mexicana); experiment: ST_JUDE_LEISH: Cytotoxicity at 2uM final concentration against transgenic Leishmania Mexicana promastigotes LmGT2 that are glucose transport deficient and complemented with the L. Mexicana glucose transporter 2. Activity is measured by DNA content using SYBR green in vitro; assay type: functional
Reported values of inhibition for individual entries
Note: unit % is implicit; provide only the numeric part.

// below: answered compounds
{"compound": "COc1ccc2nccc(N3CCN(CCNCc4ccc5c(n4)NC(=O)CO5)CC3)c2n1", "testedOn": "Glucose transporter (Leishmania mexicana)", "inhibition / %": 10.1}
{"compound": "CC(=O)Nc1ccc(C(=O)Nc2ccc(-c3cccc(-c4nc5ccccc5[nH]4)c3)cc2)cn1", "testedOn": "Glucose transporter (Leishmania mexicana)", "inhibition / %": -0.56}
{"compound": "COc1ccccc1C1CCN(C2CCC(NC(=O)/C=C/c3cccc(C(F)(F)F)c3)CC2)CC1 (configuration not stated)", "testedOn": "Glucose transporter (Leishmania mexicana)", "inhibition / %": 5.04}

Bench note, Glucose transporter (Leishmania mexicana): entry "CN1CCN(Cc2ccc(-c3cccc(-c4nc5ccccc5[nH]4)c3)cc2)CC1" , its inhibition = -2.4

Form field, inhibition with Glucose transporter (Leishmania mexicana), item "CN1CCN(c2nc(NCCc3ccc(O)cc3)nc(NCc3ccccc3-c3ccc(C(F)(F)F)cc3)n2)CC1" : 3.13

Reported inhibition (Glucose transporter (Leishmania mexicana)) for entry "O=C1OC(c2ccccc2)(c2ccccc2)CN1CC1CCN(Cc2ccc(O)c(Cl)c2)CC1" is 32.2

Considering "CCN(CCCN1CCCCC1)c1nccc(Nc2ccc(Cl)cc2)n1" , its inhibition with Glucose transporter (Leishmania mexicana) was recorded as 1.18

Observed inhibition, Glucose transporter (Leishmania mexicana), "COc1cccc(-n2ncc3c(N/N=C/c4ccc(CN(C)CCN(C)C)cc4)ncnc32)c1" : 7.16

Item "CCN(CC)CCN(Cc1ccc(-c2ccc(C(F)(F)F)s2)cc1)C(=O)Cn1c(CCc2cccc(F)c2F)nc(=O)c2ccccc21" was tested on Glucose transporter (Leishmania mexicana); the reported inhibition is 2.57

Sample "O=C(Nc1ccc(OC2CCN(Cc3ccsc3)CC2)c(Cl)c1)c1cccs1" , system: Glucose transporter (Leishmania mexicana). Its inhibition is 2.85

# inhibition measured on Glucose transporter (Leishmania mexicana) for item "CC(=O)Nc1ccc(CN(Cc2ccc(F)cc2)Cc2ccc3c(c2)OCO3)cc1" = 3.2

With Glucose transporter (Leishmania mexicana) as the test system, "CN1CCN(CCCN(Cc2cccc(-c3ccc(CNCCc4ccccc4)cc3)c2)C(=O)Nc2ccccc2)CC1" showed inhibition of 1.35

Item "C[C@H](Cc1ccc(C[C@@H](C)NC[C@H](O)c2cccc(Cl)c2)cc1)NC[C@H](O)COc1ccccc1" was tested on Glucose transporter (Leishmania mexicana); the reported inhibition is 3.59

The reported numbers originate from ChEMBL document CHEMBL3433997.
